- Tested on: GCT (Other Solid Carcinomas)
- Measurement notes: combination Emax (second highest fraction inhibited in the dose matrix, 72 h); higher = more inhibition; extreme values may be limits of the assay
Observable: combination Emax

Q: Bench note: what combination Emax did C[C@@H](c1ccc2nccn2c1)n1nnc2ncc(-c3cnn(C)c3)nc21 [Savolitinib] + CC1(C)CCC(CN2CCN(c3ccc(C(=O)NS(=O)(=O)c4ccc(NCC5CCOCC5)c([N+](=O)[O-])c4)c(Oc4cnc5[nH]ccc5c4)c3)CC2)=C(c2ccc(Cl)cc2)C1 [Venetoclax] (first compound max 1 µM, 7x7, partner max 1 µM) show?
A: 0.0973

// next item, combination Emax requested
Q: Returns the measured combination Emax for the input compound. Input: Cc1cc2ncnn2cc1Nc1ncc2c(n1)n(C1CCOCC1)c(=O)n2C [AZD7648] + CN(C)CCCOc1ccc(-c2ccc3ncc4c(c3c2)n(C2CCOCC2)c(=O)n4C)cn1 [AZD0156] (first compound max 10 µM, 7x7, partner max 1 µM)
A: 0.343

###

- Test system: JHU-022 (Oral Cavity Carcinoma);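 also: after 72 h of two-drug dosing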
- Measurement notes: Bliss excess, mean over the matrix (fraction); higher = more synergy
Observable: Bliss excess
Write no unit; give the number alone.

Q: Bliss excess lookup needed for CN(CCO)CC[C@H](CSc1ccccc1)Nc1ccc(S(=O)(=O)NC(=O)c2ccc(N3CCC([C@@H](O)c4ccccc4-c4ccc(Cl)cc4)CC3)cc2)cc1S(=O)(=O)C(F)(F)F [AZD4320] + CC(=O)O[C@H]1C(=O)[C@@]2(C)[C@H]([C@H](OC(=O)c3ccccc3)[C@]3(O)C[C@H](OC(=O)[C@H](O)[C@@H](NC(=O)c4ccccc4)c4ccccc4)C(C)=C1C3(C)C)[C@]1(OC(C)=O)CO[C@@H]1C[C@@H]2O [Paclitaxel] (first compound max 1 µM, 7x7, partner max 3 µM) , thanks.
A: 0.155

Kindly review the next compound as well.
Q: Reported Bliss excess, compound Cc1cc2ncnn2cc1Nc1ncc2c(n1)n(C1CCOCC1)c(=O)n2C [AZD7648] + C=CCn1c(=O)c2cnc(Nc3ccc(N4CCN(C)CC4)cc3)nc2n1-c1cccc(C(C)(C)O)n1 [AZD1775] (first compound max 10 µM, partner max 1 µM) : ____
A: -0.0239

###

Here the recorded combination Emax is given for each entry.
- Test system: CA46 (Burkitt's Lymphoma)
- Measurement notes: combination Emax (second highest fraction inhibited in the dose matrix, 72 h); higher = more inhibition; extreme values may be limits of the assay
Reply: number alone, nothing else.

Q: Which value of combination Emax has been reported for CC1(C)CCC(CN2CCN(c3ccc(C(=O)NS(=O)(=O)c4ccc(NCC5CCOCC5)c([N+](=O)[O-])c4)c(Oc4cnc5[nH]ccc5c4)c3)CC2)=C(c2ccc(Cl)cc2)C1 [Venetoclax] + CN(C)CCCOc1ccc(-c2ccc3ncc4c(c3c2)n(C2CCOCC2)c(=O)n4C)cn1 [AZD0156] (first compound max 1 µM, 7x7, partner max 1 µM) in the records?
A: 0

New cases:
Q: Record request: combination Emax value, item C[C@@H]1COCCN1c1cc(C2([S@](C)(=N)=O)CC2)nc(-c2ccnc3[nH]ccc23)n1 [AZD6738] + O=C(c1cc(Cc2n[nH]c(=O)c3ccccc23)ccc1F)N1CCN(C(=O)C2CC2)CC1 [Olaparib] (first compound max 10 µM, 7x7, partner max 10 µM)
A: 0.412

Where these numbers come from: the supplement of paper PMC11061612
